- assay-overview: viability gain of MRP-1-high H69AR cells under doxorubicin, pilot screen, MRP-1 activator project, CellTiter-Glo, duplicate (AID 807);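 further: compound pretreatment 18-22 h then 72 h combined with doxorubicin; 0% = doxorubicin alone and 100% = vehicle without doxorubicin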
- run-parameters: H69AR viability with doxorubicin, CellTiter-Glo luminescence; at 10 µM; hits give high values
Assignment: determine reported viability increase for the given molecules.
The figure you give is taken to be in %; do not add the unit.

Data point: `CCOC(=O)c1nc2ccccc2s1` ; viability increase = -2.72

Data point: `CC(=O)c1c(C)[nH]c(C(=O)N2CCN(c3ncccn3)CC2)c1C` ; viability increase = -1.39

Data point: `O=C(CCN1CCc2ccccc2C1)Nc1ccccc1` ; viability increase = -4.06

Data point: `Cc1noc(C)c1S(=O)(=O)N(CC(=O)Nc1ccc2c(c1)OCCO2)c1ccc(C(C)C)cc1` ; viability increase = -5.12

Data point: `COCC(=O)NCc1nc2ccccc2n1Cc1ccccc1F` ; viability increase = -1.11

Data point: `C/C(N)=C(/C#N)C(=O)CSc1n[nH]c(-c2ccccc2Br)n1` ; viability increase = 2.73

Data point: `CCCC(=O)Nc1ccccc1-c1nnc(SC)[nH]c1=O` ; viability increase = -2.76

Data point: `CCN(CC)CC(=O)n1c2c(c3ccccc31)CCCC2` ; viability increase = -1.1

Data point: `CN(C)Cc1nc2c([nH]1)c(=O)n(C)c(=O)n2C` ; viability increase = -1.31

Data point: `Cc1cc2ncn(C(=O)c3c(-c4c(Cl)cccc4Cl)noc3C)c2cc1C` ; viability increase = -3.42

Data point: COC(=O)C(C)n1cnc2c(nnn2-c2cccc(Cl)c2)c1=O (centres undefined) ; viability increase = 2.08

Data point: `O=C(Cn1cnc2c(nnn2-c2ccccc2)c1=O)N1CCC(Cc2ccccc2)CC1` ; viability increase = -1.56

Data point: `CCc1nc(N(CC)CC)c2oc3ccccc3c2n1` ; viability increase = -4.87

Data point: COc1cccc(C2CC(c3ccccc3OC)n3nc(N)nc3N2)c1 (centres undefined) ; viability increase = -1.09

Data point: `Cn1c(NC(=O)CCC2CCCCC2)cc(=O)n(C)c1=O` ; viability increase = 2.29

Data point: Cc1ccc2oc3c(c(=O)c2c1)C(c1ccc(F)cc1)N(CCCN1CCOCC1)C3=O (centres undefined) ; viability increase = -4.72

Data point: `O=C1c2ccccc2C(=O)N1CCc1nc2ccccc2c(=O)n1CCCn1ccnc1` ; viability increase = -2.41

Data point: CCOC(=O)N1CCC(NC(=O)C2CCCCN2S(=O)(=O)c2ccc(F)cc2)CC1 (centres undefined) ; viability increase = -3.71

Data point: COC(=O)C1C(C(C)C)N(c2ccccc2)OC1(C)O (centres undefined) ; viability increase = -4.25

----------
- assay-overview: inhibitors of the yeast RAM network, pilot screen, dse1pr::URA3 reporter, 5-FOA selection (AID 869);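 further: 0% = DMSO wells with no growth and 100% = 10 µM 1-NA-PP1 with full growth; RAM network block rescues cells from 5-FOA so hits raise OD615 growth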
- run-parameters: S. cerevisiae dse1pr::URA3 5-FOA growth, OD615, 2 d; at 10 µM; hits give high values; strain carries analog-sensitive mutant Cbk1 kinase
Mark no (0) for inhibition values under 0.8%, and yes (1) for everything at or above.

Confirm if inhibition reported for the molecule `CC(=O)Nc1nnc(-c2ccc3c(c2)CCCC3)o1` is 0.8% or above. yes (1)

Confirm if inhibition reported for the molecule `COc1ccccc1C(=O)Nc1nnc(-c2ccc(F)cc2)o1` is 0.8% or above. no (0)

Confirm if inhibition reported for the molecule `O=C(Nc1nc(-c2cccs2)cs1)c1ccc(S(=O)(=O)N2CCCCC2)cc1` is 0.8% or above. yes (1)

Confirm if inhibition reported for the molecule `COc1cc(NC(=O)CCCC(=O)OCC(F)(F)C(F)F)nc(OC)n1` is 0.8% or above. yes (1)

Confirm if inhibition reported for the molecule `Cc1cc(C)c2c(n1)SCC(=O)N2CC(=O)NCCC1=CCCCC1` is 0.8% or above. no (0)

Confirm if inhibition reported for the molecule CCSc1nnc2c(n1)OC(c1ccc(C(=O)O)cc1)N(C(C)=O)c1ccccc1-2 (stereo unspecified) is 0.8% or above. yes (1)

Confirm if inhibition reported for the molecule Cn1c(NC(=O)C2CCCO2)cc(=O)n(C)c1=O (stereo unspecified) is 0.8% or above. no (0)

Confirm if inhibition reported for the molecule `CCCn1c(CN2CCN(C(=O)OCC)CC2)nc2c1c(=O)n(C)c(=O)n2C` is 0.8% or above. no (0)

Confirm if inhibition reported for the molecule `COC(=O)c1sccc1NC(=O)c1ccc(Br)o1` is 0.8% or above. yes (1)

Confirm if inhibition reported for the molecule `COc1ccc(-n2c(Cc3cc(=O)[nH]c(=O)[nH]3)nnc2SCC(=O)Nc2ccccc2)cc1` is 0.8% or above. no (0)

----------
- assay-overview: RAM signaling pathway blockade in yeast – S. cerevisiae, Pdr1DBD-CYC8 efflux-inhibited sensitized strain, primary screen (AID 1298);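 further: 0% = DMSO untreated cells without growth and 100% = 10 µM 1-NA-PP1 full growth; higher means more yeast growth rescued from 5-FOA killing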
- run-parameters: S. cerevisiae cbk1-as DSE1-URA3 strain, 5-FOA growth OD615, 2 d; at 50 µM; hits give high values
Assignment: determine reported RAM network inhibition for the given compounds.
The figure you give is taken to be in %; do not add the unit.

Data point: O=C1C2CCCN2C(c2ccccc2)N1c1ccc(F)cc1 (configuration not stated) ; RAM network inhibition = 2.34

Data point: `COC(=O)CCSCC(=O)Nc1nnc(C)s1` ; RAM network inhibition = 0.66

Data point: `COc1cccc(C(=O)Nc2cc(=O)n(C)c(=O)n2C)c1` ; RAM network inhibition = 2.08

Data point: CCCOC(=O)C1C2C=CC3(CN(c4ccc(Cl)c(F)c4)C(=O)C13)O2 (configuration not stated) ; RAM network inhibition = 1.54

Data point: `Cc1nnc(Sc2nc3c(c(=O)[nH]c(=O)n3C)n2CCCc2ccccc2)s1` ; RAM network inhibition = 2.87

Data point: `CCc1c(C)sc(NC(=O)c2cc(C)no2)c1C#N` ; RAM network inhibition = 6.13

Data point: `CCN(CC)S(=O)(=O)c1ccc(Cl)c(C(=O)NC)c1` ; RAM network inhibition = 3.63

Data point: `COc1cccc(-c2cc(C(=O)N3CCN(c4ncccn4)CC3)c3ccccc3n2)c1` ; RAM network inhibition = -0.21

Data point: `Cn1c(C(=O)NCCN2CCc3ccccc3C2)cc2c(=O)n(C)c3ccccc3c21` ; RAM network inhibition = 1.02

Data point: `CCc1ccc(N2CCN(C(=O)c3ccc(OC)c(OC)c3)CC2)cc1` ; RAM network inhibition = 2.51

Data point: `O=C(c1ccc(S(=O)(=O)N2CCOCC2)cc1)N1CCN(c2ccccc2)CC1` ; RAM network inhibition = 1.64

Data point: `CCCSC1=N/C(=C\c2ccsc2)C(=O)S1` ; RAM network inhibition = 9.91

Data point: `Cn1cc(SCC(=O)N2CCN(c3ccccc3)CC2)c2ccccc21` ; RAM network inhibition = 7.36

Data point: `CCOC(=O)CCn1cc(F)c(=O)n(Cc2ccccc2)c1=O` ; RAM network inhibition = 1.43

Data point: `CCCNC(=O)N1CCN(c2nc(C(C)C)c3c(c2C#N)CC(C)(C)OC3)CC1` ; RAM network inhibition = 8.42

Data point: `O=S(=O)(c1ccccc1)N1CCN(C2CCN(Cc3ccccc3)CC2)CC1` ; RAM network inhibition = 2.72

Data point: `COc1ccc(OC)c(N(CC(=O)NCc2ccccn2)S(C)(=O)=O)c1` ; RAM network inhibition = 0.46

Data point: `Cc1onc(-c2ccccc2)c1C(=O)Nc1ccccc1C#N` ; RAM network inhibition = 2.87

Data point: `CNc1oc(-c2ccccc2)nc1C#N` ; RAM network inhibition = 5.84

Data point: `CCOC(=O)c1cc(NC(=O)NCc2ccco2)c(C)nc1C` ; RAM network inhibition = 4.38

Data point: COc1ccc(OC)c(C(C)NC(=O)c2ccco2)c1 (configuration not stated) ; RAM network inhibition = 0.72

Data point: `CCOC(=O)c1ccc(NC(=O)c2nccnc2C(=O)O)cc1` ; RAM network inhibition = -0.42

Data point: `CN1CCN(S(=O)(=O)c2ccc(NC(=O)c3cccc(S(=O)(=O)N4CCCC4)c3)cc2)CC1` ; RAM network inhibition = 9.3

Data point: `CCOC(=O)c1ccc(NS(=O)(=O)c2cc(-c3nnnn3CC)ccc2OC)cc1` ; RAM network inhibition = 6.36

Data point: `CC1(C)Oc2ccc3ccc(=O)oc3c2-c2cnoc21` ; RAM network inhibition = 4.79

Data point: `Fc1ccccc1COc1cccc(/C=N/n2cnnc2)c1` ; RAM network inhibition = 0.15

Data point: CCCCNC(=O)CC1Nc2ccccc2NC1=O (configuration not stated) ; RAM network inhibition = 5.83

Data point: `O=C(Cc1cccs1)NCCn1ccc2ccccc21` ; RAM network inhibition = 9.88

Data point: N#CC1=C(N)C(C#N)(C#N)C2(C(=O)Nc3ccccc32)C2CCCC=C12 (configuration not stated) ; RAM network inhibition = 0.83

Data point: `COc1ccc(C)cc1NC(=O)CSc1nnc(-c2ccco2)n1Cc1ccco1` ; RAM network inhibition = 6.62

Data point: `Cn1c(=O)c2c(SCc3cccnc3)nc(C3CC3)nc2n(C)c1=O` ; RAM network inhibition = -1.65

Data point: `COc1ccc(C(=O)O)cc1Nc1cc(C)nc2ncnn12` ; RAM network inhibition = 0.94

Data point: `CCCc1nnc(NC(=O)CCC(=O)O)s1` ; RAM network inhibition = 0

Data point: `CCn1c(/C=N/n2cnnc2)nc2ccccc21` ; RAM network inhibition = -0.99

Data point: `c1ccc(-c2nnc(-c3ccccn3)nn2)nc1` ; RAM network inhibition = -3

Data point: Cc1cccc(N2CCN(C(=O)C3CCN(S(=O)(=O)c4cccc5cccnc45)CC3)CC2C)c1 (configuration not stated) ; RAM network inhibition = 1.04

Data point: `CC(C)N(Cc1nc(-c2ccccc2)no1)C(=O)COc1ccccc1` ; RAM network inhibition = 3.19

Data point: `Cc1cc(C)c(S(=O)(=O)N2CCN(C)CC2)c(C)c1` ; RAM network inhibition = 1.78

Data point: `O=C(Nc1ccc(OC(F)(F)F)cc1)c1cnc2n(c1=O)CCS2` ; RAM network inhibition = 4.63

Data point: O=C(NC1CCCCCCC1)C1CCC(CNc2c(N3CCCC3)c(=O)c2=O)CC1 (configuration not stated) ; RAM network inhibition = 4.83

Data point: `Fc1cccc(CSc2nc3ccncc3[nH]2)c1` ; RAM network inhibition = 7.53

Data point: `Cc1cc(C)c(NC(=O)CN2CCN(C)CC2)c(C)c1` ; RAM network inhibition = 1.38

Data point: `COc1cc(OC)cc(C(=O)NCCn2ccc3ccccc32)c1` ; RAM network inhibition = 7.95

Data point: `CCOC(=O)Cn1c(C(C)=O)nc2ccccc21` ; RAM network inhibition = 0.32

Data point: `CS(=O)(=O)N1CCN(c2nc(-c3ccccc3)cs2)CC1` ; RAM network inhibition = -0.16

Data point: `O=C(Nc1sc2c(c1C(=O)O)CCCCC2)c1ccco1` ; RAM network inhibition = -1.46

Data point: CCOC(=O)c1ccc(N2CSC3=C(C#N)C(c4ccc(OC)cc4OC)CC(=O)N3C2)cc1 (configuration not stated) ; RAM network inhibition = 1.72
